TEST_METHOD_NOTES: Oral bioavailability in cynomolgus monkey at 2.5 mg/kg
Type: ADME, organism-based, Macaca fascicularis
MEASUREMENT_PARAMETERS: in vivo
RECORDED_METRIC: bioavailability (%)

[A] C[C@@]1(c2nc3c(C(N)=O)cccc3[nH]2)CCCN1
[B] C[C@]1(c2nc3c(C(N)=O)cccc3[nH]2)CCCN1
Task: Between item A and item B , which reported bioavailability is smaller? Record your answer as the label of the chosen record.
Output: A
(A: 39%, B: 56%)

====

TEST_METHOD_NOTES: AUC in Beagle dog at 2.5 mg/kg, po
Format: ADME, organism-based, Canis lupus familiaris
Set-up: dose 2.5 mg/kg, route oral
MEASUREMENT_PARAMETERS: plasma
RECORDED_METRIC: AUC (ng·h/mL)

[I] C[C@@]1(c2nc3c(C(N)=O)cccc3[nH]2)CCCN1
[II] C[C@]1(c2nc3c(C(N)=O)cccc3[nH]2)CCCN1 [VELIPARIB]
Task: Please indicate which has the smaller reported AUC: I , or II . Respond using the label that marks the chosen record.
Output: I

====

TEST_METHOD_NOTES: Cmax in CD1 mouse at 10 mg/kg, po
Format: ADME, organism-based
Set-up: dose 10 mg/kg, route oral
MEASUREMENT_PARAMETERS: in vivo
RECORDED_METRIC: Cmax (ng/mL)

Here's what some known entries look like.
Cmax measured on C[C@]1(c2nc3c(C(N)=O)cc(F)cc3[nH]2)CCCN1 = 1000

Summary for this compound, CC(C)N1CCC(C)(c2nc3c(C(N)=O)cccc3[nH]2)C1 (configuration not stated) : Cmax is 500

Entry under test: CN1CCCC1(C)c1nc2c(C(N)=O)cccc2[nH]1 (configuration not stated) . Its Cmax was 100

[1] CC1(c2nc3c(C(N)=O)cccc3[nH]2)CCCCN1 (configuration not stated)
[2] CC1(c2nc3c(C(N)=O)cccc3[nH]2)CCNCC1
[3] C[C@@]1(c2nc3c(C(N)=O)cccc3[nH]2)CCCN1
[4] C[C@]1(c2nc3c(C(N)=O)cccc3[nH]2)CCCN1
Task: Arrange the 4 entries by Cmax so the values rise. Put the labels in the requested order and write them down.
Output: 2, 1, 3, 4

====

TEST_METHOD_NOTES: AUC in CD1 mouse at 10 mg/kg, po
Type: ADME, organism-based
Set-up: dose 10 mg/kg, route oral
MEASUREMENT_PARAMETERS: plasma
RECORDED_METRIC: AUC (ng·h/mL)

Documented AUC of CN1CCCC1(C)c1nc2c(C(N)=O)cccc2[nH]1 (configuration not stated) : 200

Data point: C[C@]1(c2nc3c(C(N)=O)cccc3[nH]2)CCCN1 [VELIPARIB] ; AUC = 2200

AUC reported for this compound CC1(c2nc3c(C(N)=O)cccc3[nH]2)CCCCN1 (configuration not stated) : 1500

C[C@@]1(c2nc3c(C(N)=O)cccc3[nH]2)CCCN1 yielded AUC of 1100

// AUC lookup, compound = C[C@]1(c2nc3c(C(N)=O)cc(F)cc3[nH]2)CCCN1 , result: 1500

[I] CC(C)N1CCC(C)(c2nc3c(C(N)=O)cccc3[nH]2)C1 (configuration not stated)
[II] CC1(c2nc3c(C(N)=O)cccc3[nH]2)CCNCC1
Task: I'd appreciate it if you could identify which of I and II has the greater AUC. Give the label under which the chosen entry appears.
Output: I
(I: 1000 ng·h/mL, II: 400 ng·h/mL)
